molecular target: AMPA receptor; experiment: Binding of 3H-AMPA to rat cerebra membranes; conditions: displacement of 3H-AMPA, isolated membrane material from rat cerebra
pKi: −log10 of the molar value.
measure-name: pKi

{"columns": ["smiles-code", "assay-value"],
 "data": [
  ["O=C(Nn1c(=O)c(=O)[nH]c2cc(C(F)(F)F)c(-n3cccc3)cc21)c1ccccc1", "> 5.00"],
  ["O=C(Nn1c(=O)c(=O)[nH]c2cc(C(F)(F)F)ccc21)c1ccccc1", "> 5.00"]
]}
